assay_protocol: In vivo kinetics (absorption and excretion test) in mice
test_conditions: male, Slc ddY, mouse, lung, sc, 5 mg/kg
experimental_readout: concentration at 4 h (ng/g)
All answers are understood in ng/g, so give the number only.

The recorded concentration at 4 h for CC[C@H]1OC(=O)C[C@@H](O)[C@H](C)[C@@H](O[C@@H]2O[C@H](C)C(O)C(N(C)C)C2O)[C@@H](CCN2CC(C)CC(C)C2)C[C@@H](C)C(=O)/C=C/C(C)=C/[C@@H]1CO[C@@H]1OC(C)C(O)[C@@H](OC)C1OC (stereo partly shown) is 230

----------
assay_protocol: In vivo kinetics (absorption and excretion test) in mice
test_conditions: male, Slc ddY, mouse, lung, sc, 5 mg/kg
experimental_readout: concentration at 24 h (ng/g)
All answers are understood in ng/g, so give the number only.

The recorded concentration at 24 h for CC[C@H]1OC(=O)C[C@@H](O)[C@H](C)[C@@H](O[C@@H]2O[C@H](C)C(O)C(N(C)C)C2O)[C@@H](CCN2CC(C)CC(C)C2)C[C@@H](C)C(=O)/C=C/C(C)=C/[C@@H]1CO[C@@H]1OC(C)C(O)[C@@H](OC)C1OC (stereo partly shown) [Tilmicosin, tilmicosin] is 60

----------
System: Enterobacter aerogenes ATCC13048
assay_protocol: Minimum inhibition concentration (MIC), agar double dilution method
Assay type: cell-based
test_conditions: Mueller hinton agar
Friendly reminder: MIC below 10 µg/mL is YES, at or above is NO.

# count of solved cases: 6
Q: Dear colleague, could you confirm whether MIC of CC[C@H]1OC(=O)C[C@@H](O)[C@H](C)[C@@H](O[C@@H]2O[C@H](C)C(O)C(N(C)C)C2O)[C@@H](CCN(C)C2CCCCC2)C[C@@H](C)C(=O)/C=C/C(C)=C/[C@@H]1CN(C)C1CCCCC1 (some centres unmarked) falls below 10 µg/mL? Thanks.
A: NO

Q: Dear colleague, could you confirm whether MIC of CC[C@H]1OC(=O)C[C@@H](O)[C@H](C)[C@@H](O[C@@H]2O[C@H](C)C(O)C(N(C)C)C2O)[C@@H](CCN(C)Cc2ccccc2)C[C@@H](C)C(=O)/C=C/C(C)=C/[C@@H]1CN(C)Cc1ccccc1 (some centres unmarked) falls below 10 µg/mL? Thanks.
A: NO

Q: Dear colleague, could you confirm whether MIC of CC[C@H]1OC(=O)C[C@@H](O)[C@H](C)[C@@H](O[C@@H]2O[C@H](C)C(O)C(N(C)C)C2O)[C@@H](CCN2CCCCCCC2)C[C@@H](C)C(=O)/C=C/C(C)=C/[C@@H]1CN1CCCCCCC1 (some centres unmarked) falls below 10 µg/mL? Thanks.
A: YES

Q: Dear colleague, could you confirm whether MIC of CC[C@H]1OC(=O)C[C@@H](O)[C@H](C)[C@@H](O[C@@H]2O[C@H](C)C(O)C(N(C)C)C2O)[C@@H](CCN2CC(C)CC(C)C2)C[C@@H](C)C(=O)/C=C/C(C)=C/[C@@H]1CN1CC(C)CC(C)C1 (some centres unmarked) falls below 10 µg/mL? Thanks.
A: NO

Q: Dear colleague, could you confirm whether MIC of CC[C@H]1OC(=O)C[C@@H](O)[C@H](C)[C@@H](O[C@@H]2O[C@H](C)C(O)C(N(C)C)C2O)[C@@H](CCN2CCCCCC2)C[C@@H](C)C(=O)/C=C/C(C)=C/[C@@H]1CN1CCCCCC1 (some centres unmarked) falls below 10 µg/mL? Thanks.
A: YES

Q: Dear colleague, could you confirm whether MIC of CC[C@H]1OC(=O)C[C@@H](O)[C@H](C)[C@@H](O[C@@H]2O[C@H](C)C(O)C(N(C)C)C2O)[C@@H](CCN2CCCC2)C[C@@H](C)C(=O)/C=C/C(C)=C/[C@@H]1CN1CCCC1 (some centres unmarked) falls below 10 µg/mL? Thanks.
A: NO

Next:
Q: Dear colleague, could you confirm whether MIC of CC[C@H]1OC(=O)C[C@@H](O)[C@H](C)[C@@H](O[C@@H]2O[C@H](C)C(O)C(N(C)C)C2O)[C@@H](CC=O)C[C@@H](C)C(=O)/C=C/C(C)=C/[C@@H]1CN1CCCCC1 (some centres unmarked) falls below 10 µg/mL? Thanks.
A: YES

Q: Dear colleague, could you confirm whether MIC of CCCCCCN(CCCCCC)CC[C@H]1C[C@@H](C)C(=O)/C=C/C(C)=C/[C@H](CN(CCCCCC)CCCCCC)[C@@H](CC)OC(=O)C[C@@H](O)[C@H](C)[C@H]1O[C@@H]1O[C@H](C)C(O)C(N(C)C)C1O (some centres unmarked) falls below 10 µg/mL? Thanks.
A: NO

Q: Dear colleague, could you confirm whether MIC of CC[C@H]1OC(=O)C[C@@H](O)[C@H](C)[C@@H](O[C@@H]2O[C@H](C)C(O)C(N(C)C)C2O)[C@@H](CCN(C)C)C[C@@H](C)C(=O)/C=C/C(C)=C/[C@@H]1CN(C)C (some centres unmarked) falls below 10 µg/mL? Thanks.
A: NO

Q: Dear colleague, could you confirm whether MIC of CC[C@H]1OC(=O)C[C@@H](O)[C@H](C)[C@@H](O[C@@H]2O[C@H](C)C(O)C(N(C)C)C2O)[C@@H](CCN(Cc2ccccc2)Cc2ccccc2)C[C@@H](C)C(=O)/C=C/C(C)=C/[C@@H]1CN(Cc1ccccc1)Cc1ccccc1 (some centres unmarked) falls below 10 µg/mL? Thanks.
A: NO

Q: Dear colleague, could you confirm whether MIC of CC[C@H]1OC(=O)C[C@@H](O)[C@H](C)[C@@H](O[C@@H]2O[C@H](C)C(O)C(N(C)C)C2O)[C@@H](CCN2CCC(C)CC2)C[C@@H](C)C(=O)/C=C/C(C)=C/[C@@H]1CN1CCC(C)CC1 (some centres unmarked) falls below 10 µg/mL? Thanks.
A: NO
